protocol_details: qHTS RealTime-Glo MT Cell Viability Assay in HepG2 cells - 32 hour (AID 1224877); further: on the % scale 0 is the no-effect control and ±100 the full control effect; nearly all actives have a fitted effect of over 55% in size
measurement_conditions: RealTime-Glo luminescence; series mostly up to 76.8 µM
Results filed as inconclusive are left out. The source made the active and inactive calls. The call rests on the fitted dose curve; in most records, active means well fitted cell-killing curve with a large enough effect in the repeat runs; inconclusive means weak or mixed curves; inactive means flat fitted curve, though single readings scatter.
readout_label: activity change, negative = cytotoxic

| compound | readout_label | assay_value |
| --- | --- | --- |
| CCCCCN(CCCOC)C(=O)C(CCC(=O)O)NC(=O)c1ccc(Cl)c(Cl)c1 (configuration not stated) | activity change, negative = cytotoxic | inactive |
| O=C(O)Cc1cccc(-c2cc(CCCCCCc3ccc(O[C@H]4O[C@H](CO)[C@@H](O)[C@H](O)[C@@H]4O)c(-c4cccc(CC(=O)O)c4)c3)ccc2O[C@H]2O[C@H](CO)[C@@H](O)[C@H](O)[C@@H]2O)c1 | activity change, negative = cytotoxic | -9.69% [at 0.29 µM] (inactive) |
| CC(=O)Nc1ccc(C)cc1 | activity change, negative = cytotoxic | inactive |
| CCOC(=O)CCc1ccccc1 | activity change, negative = cytotoxic | inactive |
| COC(=O)CCC(=O)O | activity change, negative = cytotoxic | inactive |
| Nc1ccc(C(=O)OCC(O)CO)cc1 (configuration not stated) | activity change, negative = cytotoxic | inactive |
| O=c1[nH]c(=O)c2[nH]c(=O)[nH]c2[nH]1 | activity change, negative = cytotoxic | 0.932% [at 6.97 µM] (inactive) |
| CC(C)CCCCCCOC(=O)C1CCCCC1C(=O)OCCCCCCC(C)C (configuration not stated) | activity change, negative = cytotoxic | inactive |
| CN[C@@H]1[C@H](O)[C@H](NC)[C@H]2O[C@@]3(O)C(=O)C[C@@H](C)O[C@H]3O[C@@H]2[C@H]1O | activity change, negative = cytotoxic | inactive |
| CCCCCCCCCOCC1CO1 (configuration not stated) | activity change, negative = cytotoxic | inactive |

Please state, for each entry, its recorded activity change, negative = cytotoxic.
1. F[Si-2](F)(F)(F)(F)F
2. NS(=O)(=O)c1cc2c(cc1Cl)NC(CC1CCCC1)NS2(=O)=O (configuration not stated)

1: inactive; 2: inactive

* * *

protocol_details: qHTS assay to identify small molecule agonists of H2AX (AID 1224845); further: on the % scale 0 is the no-effect control and ±100 the full control effect
measurement_conditions: CHO-K1 phospho-H2AX Ser139 HTRF, 3 h; series mostly up to 154 µM
Records with an inconclusive call do not appear. Calls of active or inactive are those of the source. The call rests on the fitted dose curve; in most records, active means well fitted activation curve with a large enough effect in the signal ratio in the repeat runs (not every such curve was filed as active); inconclusive means weak or mixed curves; inactive means flat fitted curve, though single readings scatter; the % refers to the signal ratio.
readout_label: activation (H2AX phosphorylation)

| compound | assay_value |
| --- | --- |
| CNCc1ccccc1 | inactive |
| CCN(CCC#N)c1ccccc1 | inactive |
| O=c1[nH]c(=O)c2[nH]c(=O)[nH]c2[nH]1 | 0.259% [at 14 µM] (inactive) |
| CC(Cl)COP(=O)(OCC(C)Cl)OCC(C)Cl (stereo unspecified) | inactive |
| C[C@H](CCC(=O)O)[C@H]1CC[C@H]2[C@@H]3[C@H](O)C[C@@H]4C[C@H](O)CC[C@]4(C)[C@H]3C[C@H](O)[C@]12C | inactive |

Specify reported activation (H2AX phosphorylation) for the compound shown: `CCOC(=O)C(C)(C)C` inactive

* * *

protocol_details: qHTS assay to identify small molecule that activate the aryl hydrocarbon receptor (AhR) signaling pathway - cell viability counter screen (AID 743086);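 further: HepG2 liver cells carrying the AhR DRE luciferase reporter; on the % scale 0 is the no-effect control and ±100 the full control effect; nearly all actives have a fitted effect of over 45% in size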
measurement_conditions: HepG2-AhR-luc viability, CellTiter-Fluor, 24 h; series mostly up to 70.3 µM
Records with an inconclusive call do not appear. Calls of active or inactive are those of the source. The call rests on the fitted dose curve; in most records, active means well fitted cell-killing curve with a large enough effect in the repeat runs; inconclusive means weak or mixed curves, or effect the other way; inactive means flat fitted curve, though single readings scatter.
readout_label: viability change, negative = cytotoxic

Answered cases to consult:
| compound | viability change, negative = cytotoxic |
| --- | --- |
| CO/N=C(/C(=O)N[C@@H]1C(=O)N2C(C(=O)O)=C(Cn3nnc(C)n3)CS[C@H]12)c1csc(N)n1 | inactive |
| C1=CCC(c2ccccc2)CC1 (stereo not drawn) | inactive |
| OC[C@@H](O)[C@H](O)[C@@H](O)[C@@H](O)CO | inactive |
| CN(C1CCCCC1)S(=O)(=O)c1ccccc1N | inactive |
| C[Si]1(C)N[Si](C)(C)N[Si](C)(C)N1 | inactive |
| COC(=O)CCC(=O)O | inactive |
| O=C(O)Cc1cccc(-c2cc(CCCCCCc3ccc(O[C@H]4O[C@H](CO)[C@@H](O)[C@H](O)[C@@H]4O)c(-c4cccc(CC(=O)O)c4)c3)ccc2O[C@H]2O[C@H](CO)[C@@H](O)[C@H](O)[C@@H]2O)c1 | inactive |
| C=CCOC(=O)c1ccc(C(=O)OCC=C)c(C(=O)OCC=C)c1 | inactive |

Please state, for each entry, its recorded viability change, negative = cytotoxic.
1. Cc1ccccc1OCC1CO1 (stereo not drawn)
2. Cc1ccccc1C

["inactive", "inactive"]

Please state, for each entry, its recorded viability change, negative = cytotoxic.
1. CCOC(=O)C(C)(C)C
2. CCCCC(CC)C(=O)OC(C)C (stereo not drawn)

inactive
inactive
